Target: T1, CD70 on cells (CHO-CD70, JVM-3, U266, Raji, THP-1, T cells) (human, UniProt P32970 1-193)
T1 construct: whole, on cells; also called cell-surface CD70
T1 sequence (looked up): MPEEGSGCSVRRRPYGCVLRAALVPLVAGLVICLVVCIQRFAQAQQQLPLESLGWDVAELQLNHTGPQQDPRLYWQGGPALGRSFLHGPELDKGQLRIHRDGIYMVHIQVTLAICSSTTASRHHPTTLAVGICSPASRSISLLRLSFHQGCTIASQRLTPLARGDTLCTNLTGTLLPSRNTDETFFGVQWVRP
Experiment: 1.25 µg/mL scFv on CHO-CD70 cells
quantityName: cell binding

binder	value
38-TC7-V-G06 (scFv, His-tagged) scFv: QMQLVQSGAEVKKPGSSVKVSCKASGGTFSSYAISWVRQAPGQGLEWMGWISAYNGNTNYAQKLQGRVTMTTDTSTSTAYMELRSLRSDDTAVYYCARDDYWGQGTLVTVSSGGSGGSGGSGGSSYELTQPPSVSVAPGKTARITCSGDVLGENYADWYQQKPGQAPELVIYEDSERYPGIPERFSGSTSGNTTTLTISRVLTEDEADYYCLSGDEDNRVFGGGTKLTVL	1.34e+06
13-TC7-I-E11 (scFv, His-tagged) scFv: QVQLQQWGAGLLKPSETLSLTCAVYGGSFSGYYWSWIRQPPGKGLEWIGEINHSGSTNYNPSLKSRVTISVDTSKNQFSLKLSSVTAADTAVYYCARSRRPYWYFDLWGRGTLVTVSSGGSGGSGGSGGSQSVLTQPPSVSGAPGQRVTISCTGSSSNIGAGYDVHWYQQLPGTAPKLLIYGDSNRPSGVPDRFSGSGSGTSASLAITGLQAEDEGDYYCQSFDSNLSRYVFGAGTKLTVL	532000
1-TC4-I-C10 (scFv, His-tagged; also called 1867) scFv: EVQLVQSGAEVKKPGESLKISCKGSGYSFTSYWIGWVRQMPGKGLEWMGIIYPGDSDTRYSPSFQGQVTISADKSISTAYLQWSSLKASDTAMYYCAISRTESYVMDVWGQGTTVTVSSGGSGGSGGSGGSQSALTQPRSVSGSPGQSVTISCTGTSSDVGGYNYVSWYQQHPGKAPKLMIYDVTNRPSGVPDRFSASKSDNTATLTVSGVQAEDEADYYCSSYAGSHELFGGGTKLTVL	978000
